FYI, the data here is from ChEMBL document CHEMBL5380842.

test: Volume of distribution at steady state in ICR mouse at 1 mg/kg, iv; assay type: ADME, organism-based; conditions: in vivo, read-out: Vdss
value.kind: Vd (L/kg)
Give the value, in units of L/kg, as a plain number.

Find the recorded Vd belonging to "Cc1cc(S(=O)(=O)N[C@H](C)C2CCN(C)CC2)ccc1NC(=O)c1ccccc1C" and report it. 2.2

====

test: Apparent permeability of compound across basal to apical side in human Caco2 cells at 10 uM incubated for 120 mins by LC-MS/MS analysis; conditions: Caco-2
value.kind: Papp B→A at 2 h, 10 µM (×10⁻⁶ cm/s)
Report the value in ×10⁻⁶ cm/s with no unit label.

If you can, please state the reported Papp B→A at 2 h, 10 µM value of "Cc1cc(S(=O)(=O)N[C@H](C)C2CCN(C)CC2)ccc1NC(=O)c1cc(Cl)ccc1C" . 31.4

Continue with "Cc1ccccc1C(=O)Nc1ccc(S(=O)(=O)N[C@H](C)C2CCN(C)CC2)cc1Cl" 25.9

Let us now turn to "Cc1cc(S(=O)(=O)N[C@H](C)C2CCN(C)CC2)c(F)cc1NC(=O)c1ccccc1C" 19.8

Param item: "Cc1ccccc1C(=O)Nc1ccc(S(=O)(=O)N[C@H](C)C2CCN(C)CC2)c2ccccc12" 3.4

Next compound up: "Cc1cc(S(=O)(=O)N[C@H](C)C2CCN(C)CC2)ccc1NC(=O)C1CCCCCC1" 17.7

Check "Cc1cc(S(=O)(=O)N[C@H](C)C2CCN(C)CC2)ccc1NC(=O)c1ccccc1C" too. 17.2

====

Molecular target: Cytochrome P450 2C8 (Homo sapiens)
Sequence (P10632 whole entry): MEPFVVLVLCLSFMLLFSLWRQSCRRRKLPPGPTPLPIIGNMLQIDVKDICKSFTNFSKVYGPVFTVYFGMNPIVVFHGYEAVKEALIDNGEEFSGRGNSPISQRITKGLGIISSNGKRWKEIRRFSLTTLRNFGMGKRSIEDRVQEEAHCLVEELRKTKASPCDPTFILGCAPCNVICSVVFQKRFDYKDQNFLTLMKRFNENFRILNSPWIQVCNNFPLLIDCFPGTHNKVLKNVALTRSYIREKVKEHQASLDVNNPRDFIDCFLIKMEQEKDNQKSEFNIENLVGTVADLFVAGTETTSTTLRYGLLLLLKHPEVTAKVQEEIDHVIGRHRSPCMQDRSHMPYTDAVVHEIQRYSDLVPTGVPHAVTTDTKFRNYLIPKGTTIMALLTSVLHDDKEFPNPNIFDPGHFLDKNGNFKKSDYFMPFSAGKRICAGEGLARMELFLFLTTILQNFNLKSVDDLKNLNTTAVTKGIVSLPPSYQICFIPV
value.kind: IC50

Using the record for "Cc1cc(S(=O)(=O)N[C@H](C)C2CCN(C)CC2)ccc1NC(=O)c1ccccc1C" , report its IC50. > 10 µM

====

assay: Cytotoxicity against human primary hepatocytes; format: toxicity, cell-based, Hepatocyte
value.kind: IC50

Which IC50 is listed for "Cc1cc(S(=O)(=O)N[C@H](C)C2CCN(C)CC2)ccc1NC(=O)c1ccccc1C" ? > 150 µM

====

assay: Tmax in Beagle dog at 10 mg/kg, po; assay type: ADME, organism-based, Canis lupus familiaris; details: in vivo
value.kind: Tmax (min)
Record the value in min, omitting the unit from your answer.

Find the recorded Tmax belonging to "Cc1cc(S(=O)(=O)N[C@H](C)C2CCN(C)CC2)ccc1NC(=O)c1ccccc1C" and report it. 30

====

test: Clearance in Beagle dog at 3 mg/kg, iv; format: ADME, organism-based, Canis lupus familiaris; conditions: in vivo
value.kind: clearance (mL/min/kg)
Lab book: enter the figure in mL/min/kg, no units written.

I am curious: what clearance value has been reported for "Cc1cc(S(=O)(=O)N[C@H](C)C2CCN(C)CC2)ccc1NC(=O)c1ccccc1C" ? 14.2

====

assay: Oral bioavailability in Cynomolgous monkey at 50 mg/kg; format: ADME, organism-based, Macaca fascicularis; details: cynomolgus monkey, in vivo
value.kind: bioavailability
Reply with the number, then its unit.

Tell me the measured bioavailability of "Cc1cc(S(=O)(=O)N[C@H](C)C2CCN(C)CC2)ccc1NC(=O)c1ccccc1C" , please. 105%

====

test: AUClast in Beagle dog at 10 mg/kg, po; type: ADME, organism-based, Canis lupus familiaris; design: dose 10 mg/kg, route po; conditions: in vivo
value.kind: AUC(0-t) (ng·h/mL)
Answer in ng·h/mL, number only, no unit symbol.

Fill in the blank: the reported AUC(0-t) of "Cc1cc(S(=O)(=O)N[C@H](C)C2CCN(C)CC2)ccc1NC(=O)c1ccccc1C" is ____. 6480

====

test: Tmax in Sprague-Dawley rat at 50 mg/kg, po; assay type: ADME, organism-based; conditions: in vivo
value.kind: Tmax (h)
Answer format: numeric, h implied, no suffix.

Which Tmax value belongs to "Cc1cc(S(=O)(=O)N[C@H](C)C2CCN(C)CC2)ccc1NC(=O)c1ccccc1C" ? 3.3

====

experiment: Apparent permeability of compound across apical to basal side in human Caco2 cells at 10 uM incubated for 120 mins by LC-MS/MS analysis; conditions: Caco-2
Could you label it True if measured Papp A→B at 2 h, 10 µM is 2 ×10⁻⁶ cm/s or higher, and False otherwise?

Confirm if Papp A→B at 2 h, 10 µM reported for the molecule "Cc1ccccc1C(=O)Nc1ccc(S(=O)(=O)N[C@H](C)C2CCN(C)CC2)c2ccccc12" is 2 ×10⁻⁶ cm/s or above. False

Now consider "Cc1cc(S(=O)(=O)N[C@H](C)C2CCN(C)CC2)c(F)cc1NC(=O)c1ccccc1C" and answer again. True

Consider next the molecule "Cc1cc(S(=O)(=O)N[C@H](C2CC2)C2CCN(C)CC2)ccc1NC(=O)c1ccccc1C" in the same way. False

Please do the same for "Cc1cc(S(=O)(=O)N[C@H](C)C2CCN(C)CC2)ccc1NC(=O)c1ccc(Cl)cc1C" as well. False

# repeat for "CCCN1CCC([C@@H](C)NS(=O)(=O)c2ccc(NC(=O)c3ccccc3C)c(C)c2)CC1" True

Next molecule: "Cc1ccccc1C(=O)Nc1c(C)cc(S(=O)(=O)N[C@H](C)C2CCN(C)CC2)cc1Cl" False

Please give the result for "Cc1ccccc1C(=O)Nc1ccc(S(=O)(=O)N[C@H](C)C2CCN(C)CC2)cc1Cl" too. False

What would you report for "Cc1cc(S(=O)(=O)N[C@H](C)C2CCN(C)CC2)ccc1NC(=O)c1cc(Cl)ccc1C" ? False

Would you mind doing "Cc1cc(S(=O)(=O)N[C@H](C)C2CCN(C)CC2)c(C)cc1NC(=O)c1ccccc1C" as well? False

Follow-up item: "CCc1cc(S(=O)(=O)N[C@H](C)C2CCN(C)CC2)ccc1NC(=O)c1ccccc1C" False

Please do the same for "Cc1ccccc1C(=O)Nc1ccc(S(=O)(=O)N[C@H](C)C2CCN(C)CC2)cc1C#N" as well. False

Continue with "Cc1cc(S(=O)(=O)N[C@H](C)C2CCN(C)CC2)ccc1NC(=O)c1ccsc1C" False

Do the same for "Cc1cc(S(=O)(=O)N[C@H](C)C2CCN(C)CC2)ccc1NC(=O)c1ccccc1C" please True

====

test: Volume of distribution at steady state in Cynomolgous monkey at 1 mg/kg, iv; format: ADME, organism-based, Macaca fascicularis; settings: cynomolgus monkey, in vivo, read-out: Vdss
value.kind: Vd (L/kg)
The reply should contain only the number, in L/kg.

Please give the measured Vd for this compound: "Cc1cc(S(=O)(=O)N[C@H](C)C2CCN(C)CC2)ccc1NC(=O)c1ccccc1C" 2.8

====

experiment: Unbound fraction in mouse plasma; format: ADME, cell-free
value.kind: fraction unbound

Which fraction unbound value belongs to "Cc1cc(S(=O)(=O)N[C@H](C)C2CCN(C)CC2)ccc1NC(=O)c1ccccc1C" ? 0.449

====

experiment: Oral bioavailability in ICR mouse at 50 mg/kg; assay type: ADME, organism-based; settings: in vivo
value.kind: bioavailability (%)
Could you give me the number in %? Just the number is fine.

// lookup bioavailability for "Cc1cc(S(=O)(=O)N[C@H](C)C2CCN(C)CC2)ccc1NC(=O)c1ccccc1C" 65

====

assay: Clearance in Sprague-Dawley rat at 1 mg/kg, iv; assay type: ADME, organism-based; conditions: in vivo
value.kind: clearance (mL/min/kg)
Answer in mL/min/kg, number only, no unit symbol.

What value of clearance has been recorded for this entry: "Cc1cc(S(=O)(=O)N[C@H](C)C2CCN(C)CC2)ccc1NC(=O)c1ccccc1C" 40.9

====

experiment: Apparent permeability of compound across basal to apical side in human Caco2 cells at 10 uM incubated for 120 mins by LC-MS/MS analysis; details: Caco-2
value.kind: Papp B→A at 2 h, 10 µM

Any idea what its Papp B→A at 2 h, 10 µM is? The compound is "Cc1ccccc1C(=O)Nc1ccc(S(=O)(=O)N[C@H](C)C2CCN(C)CC2)cc1C#N" 2.7 ×10⁻⁶ cm/s

What about this compound? "Cc1cc(S(=O)(=O)N[C@H](C)C2CCN(C)CC2)ccc1NC(=O)c1ccsc1C" 25.9 ×10⁻⁶ cm/s

Same question, "Cc1cc(S(=O)(=O)N[C@H](C2CC2)C2CCN(C)CC2)ccc1NC(=O)c1ccccc1C" this time 3.6 ×10⁻⁶ cm/s

Thanks! And "CCCN1CCC([C@@H](C)NS(=O)(=O)c2ccc(NC(=O)c3ccccc3C)c(C)c2)CC1" ? 30.4 ×10⁻⁶ cm/s

Next compound up: "Cc1ccccc1C(=O)Nc1c(C)cc(S(=O)(=O)N[C@H](C)C2CCN(C)CC2)cc1Cl" 19.5 ×10⁻⁶ cm/s

// same read-out, input: "Cc1cc(S(=O)(=O)N[C@H](C)C2CCN(C)CC2)c(Cl)cc1NC(=O)c1ccccc1C" 25.5 ×10⁻⁶ cm/s

Moving on to the next compound: "CCc1cc(S(=O)(=O)N[C@H](C)C2CCN(C)CC2)ccc1NC(=O)c1ccccc1C" 25.9 ×10⁻⁶ cm/s

Same lookup for "Cc1cc(S(=O)(=O)N[C@H](C)C2CCN(C)CC2)ccc1NC(=O)c1ccc(Cl)cc1C" , please. 19.4 ×10⁻⁶ cm/s

Please do the same for "Cc1cc(S(=O)(=O)N[C@H](C)C2CCN(C)CC2)c(C)cc1NC(=O)c1ccccc1C" as well. 20.1 ×10⁻⁶ cm/s
